# System: HS 578T breast
# Assay Summary: NCI tumour cell line growth inhibition, 48 h; in the data active = GI50 below about 0.43 µM; inactive = the rest
Outcome codes: 1 (yes) = active, 0 (no) = inactive

Compound: O=C(CC(Cl)=C(Cl)Cl)Nc1ccccc1
Discrete Label: 0 (no)

Compound: Fc1cc2[nH]ncc2c2c3c(c(-c4cn[nH]c4C(F)(F)F)nc12)CCCC3
Discrete Label: 0 (no)

Compound: COc1cc(C2Cc3ncccc3-c3[nH]c(=O)c4cccnc4c32)cc(OC)c1OC (stereo not drawn)
Discrete Label: 0 (no)

Compound: CCOC(=O)c1ccc(NC(=O)Nc2nncs2)cc1
Discrete Label: 1 (yes)

Compound: C=C1CC[C@@H]2[C@](C)(COC(C)=O)[C@H](OC(C)=O)CC[C@@]2(C)[C@@H]1CC(Nc1ccc(S(=O)(=O)NC(C)=O)cc1)C1=CCOC1=O (stereo partly drawn)
Discrete Label: 0 (no)

Compound: CCN(CC)c1ccc(/C=N/NC(=O)CSc2nc3ccccc3c(=O)n2CCc2ccc(S(N)(=O)=O)cc2)c(O)c1
Discrete Label: 0 (no)

Compound: Cc1cc(O)c(=O)cc2c1C[C@H]1CC(C)(C)/C=C/C[C@]3(C)Oc4cc(=O)c(O)cc(C)c4C[C@H]3C[C@H](O)[C@@]1(C)O2
Discrete Label: 1 (yes)

Compound: O=[N+]([O-])c1cccc2nc3ccccc3c(NCCCn3ccnc3[N+](=O)[O-])c12
Discrete Label: 1 (yes)

Compound: O=S(=O)(NCCCNc1nccc(-c2c(-c3ccc(O)cc3)nc3sccn23)n1)c1ccc(F)cc1
Discrete Label: 0 (no)

Compound: CC(=O)Nc1ccc2c(c1)C(c1ccccc1Cl)=Nc1c(n[nH]c1C)N2
Discrete Label: 0 (no)

Compound: CS(=O)(=O)Nc1cncc(-c2ccc3ncnc(Nc4ccc(F)c(Cl)c4)c3c2)c1
Discrete Label: 0 (no)

Compound: Cc1cc2nc3c4cc(O)ccc4n(CCN(C)C)c3nc2cc1C
Discrete Label: 0 (no)

Compound: Cc1cccc(N(C)C(=O)[C@@H]2[C@H](O)CCN2c2nc(C)cc(C(F)(F)F)c2C#N)c1
Discrete Label: 0 (no)
